Biological target: ctPrp2-ctSpp2_211–254 complex (ctPrp2_270–921 with ctSpp2G-patch) (Thermochaetoides thermophila)
Sequence (G0SEG4 270-921): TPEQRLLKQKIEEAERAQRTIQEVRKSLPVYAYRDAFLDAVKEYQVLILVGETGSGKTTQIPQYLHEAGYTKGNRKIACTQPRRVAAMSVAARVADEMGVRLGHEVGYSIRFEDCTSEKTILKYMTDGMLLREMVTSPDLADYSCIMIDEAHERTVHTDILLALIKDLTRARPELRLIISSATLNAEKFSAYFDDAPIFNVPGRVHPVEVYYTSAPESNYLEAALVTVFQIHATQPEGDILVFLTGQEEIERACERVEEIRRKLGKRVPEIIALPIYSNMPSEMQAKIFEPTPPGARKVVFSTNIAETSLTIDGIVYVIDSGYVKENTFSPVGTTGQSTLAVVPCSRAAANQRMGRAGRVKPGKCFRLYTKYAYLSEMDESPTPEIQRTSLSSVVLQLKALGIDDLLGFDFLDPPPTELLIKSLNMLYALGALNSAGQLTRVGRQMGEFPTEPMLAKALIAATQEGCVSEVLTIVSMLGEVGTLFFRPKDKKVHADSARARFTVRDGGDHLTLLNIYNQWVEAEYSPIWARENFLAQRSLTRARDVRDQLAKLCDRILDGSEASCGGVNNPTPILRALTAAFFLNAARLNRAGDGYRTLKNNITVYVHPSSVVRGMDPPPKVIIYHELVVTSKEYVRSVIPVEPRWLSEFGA
Sequence (G0SFN3 211-254 partner): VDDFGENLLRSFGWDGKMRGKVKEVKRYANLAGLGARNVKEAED
Test: ITC
Format: binding
measured.property: Kd

stdin: Entry Nc1ncnc2c1ncn2[C@@H]1O[C@H](COP(=O)(O)OP(=O)(O)O)[C@@H](O)[C@H]1O has what Kd?
stdout: ~172 nM

Hey, just so you know, these numbers are from paper PMC7022188.
